Target: Bcl-2-like protein 10 (Homo sapiens)
Test: TR3 peptide-Bcl-B binding displacers, biochemical primary FP assay, phenotype converters (AID 1240);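 further: 0% = Bcl-B with tracer peptide and DMSO and 100% = tracer peptide lacking Bcl-B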
Conditions: GST-Bcl-B / FITC-TR3 peptide fluorescence polarization; stronger effect = higher value; compound at 3.75 mg/L
The whole screen tested about 50,000 compounds, of which about 800 (1.6%) showed an effect of 50% or more. The entries come from a sample that favours strong results as a whole.
Recorded displacement, one value per entry.

>  <COMPOUND>
N#CC(C#N)=Cc1cccc2ccccc12

>  <displacement (%)>
5.7

$$$$
>  <COMPOUND>
COc1ccc(N2C(=O)NC(=O)/C(=C/c3ccc(-c4cccc(Cl)c4)o3)C2=O)cc1

>  <displacement (%)>
69

$$$$
>  <COMPOUND>
O=C1NC(=S)N(c2ccc(Br)cc2)C(=O)/C1=C/c1ccc(-c2ccccc2C(=O)O)o1

>  <displacement (%)>
19.2

$$$$
>  <COMPOUND>
Clc1ccccc1CNCCc1c[nH]c2ccccc12

>  <displacement (%)>
2

$$$$
>  <COMPOUND>
CCOc1ccc(N2C(=O)/C(=C/c3cc(Cl)ccc3O)C(=O)NC2=S)cc1

>  <displacement (%)>
0.4

$$$$
>  <COMPOUND>
Cc1cc(Cl)ccc1OCC(=O)N1CCN(C)CC1

>  <displacement (%)>
-6.7

$$$$
>  <COMPOUND>
O=c1[nH]c(=O)n(Cc2ccccc2)c(O)c1C=C1C=Nc2ccccc21

>  <displacement (%)>
8.6

$$$$
>  <COMPOUND>
Nc1ccc(Br)cc1C(=O)c1ccc(Cl)cc1Cl

>  <displacement (%)>
10

$$$$
>  <COMPOUND>
Cc1ccc(N2C(=O)CC(=O)NC2=S)cc1

>  <displacement (%)>
5.6

$$$$
>  <COMPOUND>
Cc1nc2cc([N+](=O)[O-])ccc2c(=O)n1-c1ccc(Cl)cc1

>  <displacement (%)>
71.3

$$$$
>  <COMPOUND>
O=C(Cn1c[n+]([N-][N+](=O)[O-])cn1)N1CCN(C(=O)Cn2c[n+]([N-][N+](=O)[O-])cn2)CC1

>  <displacement (%)>
15

$$$$
>  <COMPOUND>
COC(=O)N1[C@H](c2ccccc2)[C@@H]1c1ccccc1

>  <displacement (%)>
11.9

$$$$
>  <COMPOUND>
COc1ccc(OC)c(N2C(=O)CC(=O)NC2=O)c1

>  <displacement (%)>
-5.1

$$$$
>  <COMPOUND>
CN1C(=O)NC(=O)/C(=C\c2cc3c(cc2Cl)OCO3)C1=O

>  <displacement (%)>
0.4

$$$$
>  <COMPOUND>
O=C1Nc2ccccc2/C1=C/c1nc2ccc(I)cc2c(=O)n1-c1ccccc1

>  <displacement (%)>
4.5

$$$$
>  <COMPOUND>
C(=NCCCN1CCOCC1)c1c[nH]c2ccccc12

>  <displacement (%)>
2.6

$$$$
>  <COMPOUND>
COC(=O)C1C2C(=O)N(c3ccc([N+](=O)[O-])cc3)C(=O)C12c1ccc(C)cc1 (stereo not drawn)

>  <displacement (%)>
-32.2

$$$$
>  <COMPOUND>
COc1ccc(OC)c(-n2c(O)c(C=C3C=Nc4ccccc43)c(=O)[nH]c2=O)c1

>  <displacement (%)>
118

$$$$
>  <COMPOUND>
CC(C)c1ccc(N2C(=O)CC(=O)NC2=O)cc1

>  <displacement (%)>
-5.9

$$$$
>  <COMPOUND>
CC1(C)C(C(=O)Nc2cccc3ccccc23)C1(C)C

>  <displacement (%)>
3.9

$$$$
>  <COMPOUND>
CCc1ccccc1N1C(=O)NC(=O)/C(=C\c2cc(C)n(C)c2C)C1=O

>  <displacement (%)>
87.7

$$$$
>  <COMPOUND>
Cc1ccc(-c2nc3ccccc3c(=O)n2-c2nccs2)cc1

>  <displacement (%)>
-0.6

$$$$
>  <COMPOUND>
Cc1cc(/C=C2\C(=O)NC(=O)N(c3ccc(Cl)cc3)C2=O)c(C)n1C

>  <displacement (%)>
1.7

$$$$
>  <COMPOUND>
O=C1NC(=O)N(c2ccccc2Cl)C(=O)C1=Cc1ccccc1

>  <displacement (%)>
12.8

$$$$
>  <COMPOUND>
O=C(Nc1ccc(Br)cc1C(=O)c1ccccc1)c1ccc(F)cc1

>  <displacement (%)>
8.4

$$$$
>  <COMPOUND>
Cc1nc2ccccc2c(=O)n1-c1ccc([N+](=O)[O-])cc1

>  <displacement (%)>
11.9

$$$$
>  <COMPOUND>
O=C1C(=Cc2ccc(-c3ccccc3[N+](=O)[O-])o2)C(=O)N(c2ccccc2)C(=S)N1c1ccccc1

>  <displacement (%)>
16.4

$$$$
>  <COMPOUND>
COc1cc(C=C2C(=O)N(C)C(=O)N(C)C2=O)ccc1OCCOc1ccccc1

>  <displacement (%)>
54.3

$$$$

----------
Target: Bcl-2-like protein 10 (Homo sapiens)
Experiment: TR3 peptide-Bcl-B binding displacers, biochemical primary FP assay, phenotype converters (AID 1240);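 further: 0% = Bcl-B with tracer peptide and DMSO and 100% = tracer peptide lacking Bcl-B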
Conditions: GST-Bcl-B / FITC-TR3 peptide fluorescence polarization; stronger effect = higher value; compound at 3.75 mg/L
Hit rate of the full screen: of about 50,000 compounds, about 800 (1.6%) showed an effect of 50% or more. The full list was thinned out, with strong results kept by preference.
Use t when the recorded displacement is no lower than 10%; use f when it is lower.

>  <MOLECULE>
O=[N+]([O-])N=C1NC(OCc2ccccc2)C(OCc2ccccc2)N1 (stereo unspecified)

>  <TARGET_SYSTEM>
Bcl-2-like protein 10 (Homo sapiens)

>  <ANSWER_LABEL>
f

$$$$
>  <MOLECULE>
O=C1NC(=S)NC(=O)C1=Cc1ccc(-c2cc(Cl)c([N+](=O)[O-])cc2Cl)o1

>  <TARGET_SYSTEM>
Bcl-2-like protein 10 (Homo sapiens)

>  <ANSWER_LABEL>
t

$$$$
>  <MOLECULE>
O=C1NC(=O)C(=Cc2ccccc2)C(=O)N1

>  <TARGET_SYSTEM>
Bcl-2-like protein 10 (Homo sapiens)

>  <ANSWER_LABEL>
f

$$$$
>  <MOLECULE>
CCc1ccc(/C=C2/C(=O)NC(=O)N(c3ccc(OC)cc3)C2=O)cc1

>  <TARGET_SYSTEM>
Bcl-2-like protein 10 (Homo sapiens)

>  <ANSWER_LABEL>
f

$$$$
>  <MOLECULE>
COc1ccc(N2C(=O)NC(=O)/C(=C/c3cn(CC(=O)Nc4ccccc4)c4ccccc34)C2=O)cc1

>  <TARGET_SYSTEM>
Bcl-2-like protein 10 (Homo sapiens)

>  <ANSWER_LABEL>
t

$$$$
